Test: NFAT Signaling Pathway (AID 444);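 note: carbachol stimulus at about its EC50 of 1 µM final; % is set by controls: 0 for no effect and ±100 for the full control effect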
Details: Jurkat NFAT-bla M1, carbachol, beta-lactamase ratio, 5 h; at 17.2 µM (top of the series) unless noted
Inconclusive results are not listed.
activity change, negative = inhibition overview
Reported Property: activity change, negative = inhibition (%)

| Compound | Reported Property | Unit Info | Observed Measurement |
| --- | --- | --- | --- |
| CCCCn1c(=O)n(C)c(=O)c2c3c(sc21)COC(C)(C)C3 | activity change, negative = inhibition | % | 5.64 |
| CN1c2ccccc2-c2nc3ccccc3n2C1c1ccco1 (configuration not stated) | activity change, negative = inhibition | % | -6.44 |
| COc1cc2c(cc1OC)C1(CCCC1)C(N)=C2C#N | activity change, negative = inhibition | % | -1.71 |
| CCSc1nnc(N(CCC(=O)O)CCC(=O)O)s1 | activity change, negative = inhibition | % | 5.3 |
| COC(=O)c1c(C)noc1-c1cc(C)on1 | activity change, negative = inhibition | % | 10.8 |
| CCOC(=O)c1[nH]c2cc3c(cc2c1NC(=O)CN1CC(C)CC(C)C1)OCO3 (configuration not stated) | activity change, negative = inhibition | % | -21 |
| CSc1nc(N2CCCC2)c2c(c1C#N)CC(C)(C)OC2 | activity change, negative = inhibition | % | -19.8 |
| Cc1ccc(Cn2ncc3c(N4CCN(c5ccc(C)cc5)CC4)ncnc32)cc1 | activity change, negative = inhibition | % | -24.6 |
| CCCCc1nc(NCCN2CCOCC2)c(C#N)c2c1COC(C)(C)C2 | activity change, negative = inhibition | % | 13.3 |
| COC(=O)CSc1nc(N)nc(C)c1Br | activity change, negative = inhibition | % | 1.04 |
| COc1ccc(CCNc2nc3c(c(=O)n(C)c(=O)n3C)n2C)cc1OC | activity change, negative = inhibition | % | 3.63 |
| N#CCc1nc2c3c4c(sc3ncn2n1)CCCC4 | activity change, negative = inhibition | % | -9.45 |

----------
Assay: NFAT Signaling Pathway (AID 444);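 note: carbachol stimulus at about its EC50 of 1 µM final; % is set by controls: 0 for no effect and ±100 for the full control effect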
Conditions: Jurkat NFAT-bla M1, carbachol, beta-lactamase ratio, 5 h; at 17.2 µM (top of the series) unless noted
Records with an inconclusive call do not appear. Active and inactive are the calls of the source. Calls come from the whole dose curve; as a rule, active = well fitted curve in either direction with a large enough effect (not every such curve was filed as active); inconclusive = small, poorly fitted or top-dose-only effect, or another doubt; inactive = flat fitted curve, though single readings scatter.
Measured activity change, negative = inhibition values are reported for all entries that follow.

| Compound | activity change, negative = inhibition |
| --- | --- |
| COc1cc([C@H]2c3cc4c(cc3[C@@H](O[C@H]3O[C@H]5CO[C@@H](C)O[C@H]5[C@@H](O)[C@@H]3O)[C@@H]3COC(=O)[C@H]23)OCO4)cc(OC)c1O | -0.949% (inactive) |
| Cn1c(=O)[nH]c(=O)c2c1nc(N1CCN(c3cccc(Cl)c3)CC1)n2CCCc1ccccc1 | -11.9% (inactive) |
| COC(=O)CCc1c(C)[nH]c(=S)[nH]c1=O | 14.4% (inactive) |
| CCCSc1nnc(NC(=O)Nc2ccccc2)s1 | -25.9% (inactive) |
| Cc1cc2c(c(=O)o1)C(Cc1ccccc1)C(C#N)=C(N)O2 (stereo not given) | 9.9% (inactive) |
| Cc1cc(=O)oc(C)c1C(=O)n1nc(C)c2c1C[C@@H]1[C@H]2C1(C)C | -1.13% (inactive) |
| CCCCC(=O)Nc1c(O)c2ccccc2[nH]c1=O | -5.18% (inactive) |
| COC(=O)CNc1nc(-c2cccnc2)nc2ccccc12 | -5.87% (inactive) |
| CC1(C)CC(N(Cc2ccco2)C(=O)Cc2ccccc2)CCO1 (stereo not given) | -3.12% (inactive) |
| OC[C@@H]1O[C@@H](n2cnc3cncnc32)[C@@H](O)[C@H]1O | -10.9% [at 38 µM] (inactive) |
| COc1cccc(-c2nc(NCc3ccco3)c3ccccc3n2)c1O | 7.35% (inactive) |
| CSc1nc2sc3c(c2c2nncn12)CCC3 | -18% (inactive) |
| CCC1=Nc2ccccc2NC2=C1C(=O)CCC2 | -0.948% (inactive) |
| COc1ccc(/C(O)=C2/C(=O)C(=O)N(CCCN(C)C)C2c2ccc(C)o2)cc1Cl (stereo not given) | -6.18% (inactive) |
| O=C(O)C(Cc1c[nH]c2ccccc12)NS(=O)(=O)c1cccc2nsnc12 (stereo not given) | 3.61% (inactive) |
| Cc1ccc(Cn2ncc3c(N4CCOCC4)ncnc32)cc1 | 19.3% (inactive) |
| CCOC(=O)c1[nH]c2ccc(Br)cc2c1NC(=O)CCN1CCN(C(=O)OCC)CC1 | -25.7% (inactive) |
| CC1(C)NC(=O)N(CC(O)Cn2nnc3ccccc32)C1=O (stereo not given) | 8.84% (inactive) |
| CCCC1Cc2c(sc3ncnc(N)c23)CO1 (stereo not given) | -5.16% (inactive) |
| Nc1ncnc2c1ncn2[C@@H]1O[C@@H](CO)[C@H](O)[C@@H]1O | 4.32% [at 38 µM] (inactive) |
| Cc1ccc(SCc2[nH]nc3c2C(c2ccc(C)o2)C(C#N)=C(N)O3)cc1 (stereo not given) | -18.9% (inactive) |
| CCCCc1nc2n[nH]c(N)c2c2c1CCCC2 | 1.99% (inactive) |
| CCOc1cccc(-c2nnc3sc(-c4cccs4)nn23)c1 | -10.8% (inactive) |
| COCc1cc(C)nc(SCC(=O)Nc2ccc(C)c(C)c2)c1C#N | 3.23% (inactive) |
| Cc1cc(C)n(C(=O)CN2C(=O)CCC2=O)n1 | 0.324% (inactive) |
| COC(=O)NC(Nc1sc2c(c1C(N)=O)CCCC2)(C(=O)OC)C(F)(F)F (stereo not given) | 11.9% (inactive) |
| COc1ccc(C(=O)CSC2=C(C#N)C3(CCCCC3)C(C#N)=C(N)N2)cc1 | 14.6% (inactive) |
| O=C(NCCCn1ccnc1)C(Cc1ccccc1)N1C(=O)c2ccccc2C1=O (stereo not given) | 7.45% (inactive) |
| CCN(CC)CCCN1C(=O)C(=O)/C(=C(/O)c2ccc(Cl)cc2)C1c1ccccn1 (stereo not given) | 5.22% (inactive) |
| COc1ccc(/C=C(/C#N)c2cccnc2)cc1OC | -0.696% (inactive) |
| CCOC(=O)Cn1c(SC)nc2sc3c(c2c1=O)CC(C)(C)OC3 | 10.2% (inactive) |
| N/C(CCN1CCCCC1)=N/O | -6.23% (inactive) |
| Clc1ccc(-c2cn3c(n2)CCC3)cc1 | -26.9% (inactive) |
| CC(C)C1Cc2c(sc3c2c(=O)n(Cc2ccccc2)c2nncn32)CO1 (stereo not given) | -11.6% (inactive) |
| Cc1cc(C)c(NC(=O)OCCN2CCOCC2)c(C)c1 | -5.81% (inactive) |
| CCN(CC)CCN1C(=O)C(=O)/C(=C(/O)c2ccc(C)cc2)C1c1cccnc1 (stereo not given) | -5.95% (inactive) |
| COc1ccc(CCn2c(C)ccc2C)cc1OC | -16.3% (inactive) |
| Cc1cccc(COc2ccc(/C(O)=C3\C(=O)C(=O)N(CCN(C)C)C3c3ccncc3)cc2)c1 (stereo not given) | 13.1% (inactive) |
| C/C(NC(=O)c1cccs1)=C1\C(=O)C[C@@H]2[C@H]1C2(C)C | -25.4% (inactive) |
| Cn1c(=O)c2c(nc(NCc3ccc4c(c3)OCO4)n2Cc2ccccc2Cl)n(C)c1=O | -8.43% (inactive) |
| O=P(O)(c1ccccc1)c1ccccc1O | 7.27% (inactive) |
| COc1ccc(/C(O)=C2\C(=O)C(=O)N(c3cc(C)on3)C2c2cccc(OC)c2OC)cc1C (stereo not given) | 6.15% (inactive) |
| CCOC(=O)CCNc1n[nH]c(=O)[nH]c1=O | 7.29% (inactive) |
| N/C(CCN1CCOCC1)=N/O | 2.54% (inactive) |
| CCOc1cccc(N2C(=O)CC(N(CCc3ccc(OC)c(OC)c3)C(=O)CC)C2=O)c1 (stereo not given) | 0.637% (inactive) |

----------
Tested on: CP262
Test: qHTS profiling for inhibitors of Plasmodium falciparum proliferation (AID 504749); note: nearly all actives have a fitted effect of over 60% in size
Details: P. falciparum in erythrocytes, SYBR Green DNA, 72 h; series mostly up to 28.7 µM
Records with an inconclusive call do not appear. Active and inactive are the calls of the source. Calls come from the whole dose curve; as a rule, active = well fitted inhibition curve with a large enough effect; inconclusive = small, poorly fitted or top-dose-only effect; inactive = flat fitted curve, though single readings scatter.
Classes used: true (1) = active, false (0) = inactive

| Compound | Label |
| --- | --- |
| C[C@]12C=CC(=O)N[C@@H]1CC[C@@H]1C2CC[C@]2(C)C(C(=O)Nc3cc(C(F)(F)F)ccc3C(F)(F)F)CC[C@@H]12 (some centres not stated) | false (0) |
| CCCC(=O)Nc1c(I)cc(I)c(C[C@H](CC)C(=O)O)c1I | false (0) |
| CCC(=O)OC1C(N(C)C)CC(C)O[C@H]1O[C@H]1[C@H](C)[C@@H](O[C@H]2CC(OC)[C@@H](O)C(C)O2)[C@H](C)C(=O)O[C@@H](CC)[C@](C)(O)[C@@H](O)[C@H](C)C(=O)[C@@H](C)C[C@]1(C)O (some centres not stated) | false (0) |
| CCC(=O)O[C@]1(C(=O)CCl)[C@@H](C)CC2C3C[C@H](F)C4=CC(=O)C=CC4(C)[C@@]3(F)C(O)CC21C (some centres not stated) | true (1) |
| C[n+]1c2cc(N)ccc2cc2ccc(N)cc21 | true (1) |
| CCCCC(=O)OCC(=O)[C@]1(O)Cc2c(O)c3c(c(O)c2[C@H](OC2CC(NC(=O)C(F)(F)F)C(O)C(C)O2)C1)C(=O)c1c(OC)cccc1C3=O (some centres not stated) | true (1) |
| CC(=O)O[C@]1(C(C)=O)CCC2C3CCC4=CC(=O)CCC4(C)C3(F)C(O)CC21C (some centres not stated) | false (0) |

Numbers sourced from PubChem BioAssay (NCATS).
